# maps each entry to its DC50
target: EML4-ALK (Homo sapiens, UniProt Q9UM73); construct: endogenous in cells; host or cells: H3122 (NSCLC), single-cell clone after CRISPR knock-in of HiBit; the other entry of the earlier key: EML4 (Q9HC35, Echinoderm microtubule-associated protein-like 4); experiment: EML4-ALK HiBit degradation assay in CRISPR-tagged H3122 cells (Nano-Glo HiBit Lytic Detection); assay type: cell-based; conditions: Table 1, first DC50 column; H3122 EML4-ALK-HiBit, 16 hours; read-out: Degradation DC50
Sequence (Q9UM73 with tags, fused parts or gaps): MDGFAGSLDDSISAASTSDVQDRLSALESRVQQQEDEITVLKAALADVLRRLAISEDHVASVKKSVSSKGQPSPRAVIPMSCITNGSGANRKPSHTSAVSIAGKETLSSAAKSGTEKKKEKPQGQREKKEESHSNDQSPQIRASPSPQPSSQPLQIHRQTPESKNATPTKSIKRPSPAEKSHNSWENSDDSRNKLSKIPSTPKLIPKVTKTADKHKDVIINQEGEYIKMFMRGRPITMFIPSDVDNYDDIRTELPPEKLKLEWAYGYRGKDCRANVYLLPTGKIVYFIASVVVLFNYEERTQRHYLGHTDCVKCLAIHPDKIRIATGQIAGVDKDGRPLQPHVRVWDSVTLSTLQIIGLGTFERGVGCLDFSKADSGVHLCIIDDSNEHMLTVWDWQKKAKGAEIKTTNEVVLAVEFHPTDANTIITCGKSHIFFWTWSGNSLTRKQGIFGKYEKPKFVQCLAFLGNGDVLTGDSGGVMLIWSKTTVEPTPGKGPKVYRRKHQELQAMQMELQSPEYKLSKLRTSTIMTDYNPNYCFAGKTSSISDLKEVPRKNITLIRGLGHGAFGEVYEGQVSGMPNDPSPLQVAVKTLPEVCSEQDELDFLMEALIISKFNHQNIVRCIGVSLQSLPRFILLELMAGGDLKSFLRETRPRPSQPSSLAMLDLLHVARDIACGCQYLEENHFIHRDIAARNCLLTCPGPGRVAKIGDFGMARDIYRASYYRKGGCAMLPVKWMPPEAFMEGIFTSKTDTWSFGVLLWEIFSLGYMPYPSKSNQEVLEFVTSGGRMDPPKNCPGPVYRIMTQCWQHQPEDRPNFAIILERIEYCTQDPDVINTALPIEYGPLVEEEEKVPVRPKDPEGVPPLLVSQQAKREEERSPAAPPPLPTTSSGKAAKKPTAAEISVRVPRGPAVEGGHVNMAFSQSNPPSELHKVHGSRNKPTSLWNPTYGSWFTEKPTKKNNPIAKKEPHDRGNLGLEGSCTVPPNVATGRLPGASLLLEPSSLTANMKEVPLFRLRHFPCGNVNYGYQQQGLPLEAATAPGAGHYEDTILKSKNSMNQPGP
Use nM as the unit, but write only the number.

// worked examples, DC50 included
I'd like to know its DC50. The compound in question is COc1cc(CCN(C)CCCCCNc2cccc3c2C(=O)N(C2CCC(=O)NC2=O)C3=O)c(C)cc1Nc1ncc(Cl)c(Nc2ccccc2S(=O)(=O)C(C)C)n1 (stereo not shown) [Compound 50] 57

I'd like to know its DC50. The compound in question is COc1cc(CCN(C)CCCCCOc2cc(-c3scnc3C)ccc2[C@H](C)NC(=O)[C@@H]2C[C@@H](O)CN2C(=O)[C@@H](NC(C)=O)C(C)(C)C)c(C)cc1Nc1ncc(Cl)c(Nc2ccccc2S(=O)(=O)C(C)C)n1 [Compound 54] 67

I'd like to know its DC50. The compound in question is COc1cc(CCNCCCCCC(=O)N[C@H](C(=O)N2C[C@H](O)C[C@H]2C(=O)N[C@@H](C)c2ccc(-c3scnc3C)cc2)C(C)(C)C)c(C)cc1Nc1ncc(Cl)c(Nc2ccccc2S(=O)(=O)C(C)C)n1 [Compound 44] 1250

Note: attention shifts to another entry.
I'd like to know its DC50. The compound in question is COc1cc(CCNCCCCCOc2cc(-c3scnc3C)ccc2[C@H](C)NC(=O)[C@@H]2C[C@@H](O)CN2C(=O)[C@@H](NC(C)=O)C(C)(C)C)c(C)cc1Nc1ncc(Cl)c(Nc2ccccc2S(=O)(=O)C(C)C)n1 [Compound 53] 113

###

system: H3122 cells; assay: CTG; assay type: cell-based; conditions: Homo sapiens, NCI-H3122; Table 3; read-out: CTG IC50
Metric Name: IC50 (nM)
Use nM as the unit, but write only the number.

// worked examples, IC50 included
I'd like to know its IC50. The compound in question is COc1cc(C2CCN(CCCC#Cc3cccc4c3CN(C3CCC(=O)NC3=O)C4=O)CC2)c(C)cc1Nc1ncc(Cl)c(Nc2ccccc2S(=O)(=O)C(C)C)n1 (centres unmarked) 12

I'd like to know its IC50. The compound in question is COc1cc(CCNCCCCCC#Cc2cccc3c2CN(C2CCC(=O)NC2=O)C3=O)c(C)cc1Nc1ncc(Cl)c(Nc2ccccc2S(=O)(=O)C(C)C)n1 (centres unmarked) 50

I'd like to know its IC50. The compound in question is COc1cc(C2CCN(CCCCC#Cc3cccc4c3CN(C3CCC(=O)NC3=O)C4=O)CC2)c(C)cc1Nc1ncc(Cl)c(Nc2ccccc2S(=O)(=O)C(C)C)n1 (centres unmarked) 4

Further cases:
I'd like to know its IC50. The compound in question is COc1cc(CCNCCCCCC#Cc2ccc3c(c2)CN(C2CCC(=O)NC2=O)C3=O)c(C)cc1Nc1ncc(Cl)c(Nc2ccccc2S(=O)(=O)C(C)C)n1 (centres unmarked) 50

I'd like to know its IC50. The compound in question is COc1cc(C2CCN(CCCCCC#Cc3cccc4c3C(=O)N(C3CCC(=O)NC3=O)C4=O)CC2)c(C)cc1Nc1ncc(Cl)c(Nc2ccccc2S(=O)(=O)C(C)C)n1 (centres unmarked) 202

The values you see were collected from patent US20230158157A1.
